Biological target: Prostaglandin G/H synthase 2 (Rattus norvegicus, UniProt P35355)
Sequence (P35355 whole entry): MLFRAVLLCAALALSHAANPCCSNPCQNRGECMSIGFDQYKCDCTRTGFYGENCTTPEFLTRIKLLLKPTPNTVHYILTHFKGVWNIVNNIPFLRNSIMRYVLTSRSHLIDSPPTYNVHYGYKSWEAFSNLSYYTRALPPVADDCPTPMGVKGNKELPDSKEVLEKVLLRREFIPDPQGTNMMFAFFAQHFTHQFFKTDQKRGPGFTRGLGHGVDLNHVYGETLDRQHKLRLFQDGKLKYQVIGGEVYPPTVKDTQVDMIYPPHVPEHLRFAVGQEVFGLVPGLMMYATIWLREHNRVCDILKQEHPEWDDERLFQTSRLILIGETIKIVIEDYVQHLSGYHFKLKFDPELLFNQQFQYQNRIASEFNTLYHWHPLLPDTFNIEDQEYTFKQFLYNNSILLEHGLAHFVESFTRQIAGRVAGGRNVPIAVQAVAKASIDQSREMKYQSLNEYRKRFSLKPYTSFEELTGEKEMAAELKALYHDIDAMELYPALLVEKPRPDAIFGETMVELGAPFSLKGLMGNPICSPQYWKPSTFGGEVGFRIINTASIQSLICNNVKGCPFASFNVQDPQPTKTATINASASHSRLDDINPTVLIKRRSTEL

{"compound": "COc1ccc2c(c1)c(C[C@H](C)CC(=O)O)c(C)n2Cc1ccc(Br)cc1", "result units": "nM", "IC50": 20}
{"compound": "COc1ccc2c(c1)c(CC(C)CC(=O)O)c(C)n2Cc1ccc(Br)cc1 (stereo not drawn)", "result units": "nM", "IC50": 50}
{"compound": "COc1ccc2c(c1)c(C[C@@H](C)CC(=O)O)c(C)n2Cc1ccc(Br)cc1", "result units": "nM", "IC50": 60}

Data origin, for the record: ChEMBL document CHEMBL1129002
